Test system: H4
PROTOCOL SUMMARY: Cytotoxicity against human H4 cells expressing wild type betaAPP695 assessed as decrease in cell protein at 10 uM after 24 hrs
Assay type: cell-based
Design: scale not given: the % may be the effect or the level left
ASSAY CONTEXT: h4, 24 h
# Activity per entry
Give the value in % but do not write % after it.

Reference set (3 entries):
{"MOLECULE": "COc1cccc(CS(=O)(=O)CCNC(=O)c2c(Cl)cccc2Cl)c1", "TARGET SYSTEM": "H4", "UNIT NAME": "%", "Activity": 1.2}
{"MOLECULE": "O=C(NCCSCc1ccccc1)c1ccccc1", "TARGET SYSTEM": "H4", "UNIT NAME": "%", "Activity": 0.7}
{"MOLECULE": "O=C(NCC[S+]([O-])Cc1cccc(O)c1)c1c(Cl)cccc1Cl (stereo unspecified)", "TARGET SYSTEM": "H4", "UNIT NAME": "%", "Activity": 2.8}

Sample O=C(NCC[S+]([O-])Cc1cccc(Cl)c1)c1c(Cl)cccc1Cl (stereo unspecified) — what was its Activity?
-4.9

Sample `O=C(NCCSCc1cc(O)cc(O)c1)c1c(Cl)cccc1Cl` — what was its Activity?
-0.4

Sample `O=C(NCCSCc1cccc(Cl)c1)c1c([N+](=O)[O-])cccc1[N+](=O)[O-]` — what was its Activity?
0.1

Sample `O=C(NCCSCc1cccc(O)c1)c1c(Cl)cccc1Cl` — what was its Activity?
6.3

Sample `O=C(NCCSCc1ccccc1)c1c(Cl)cccc1Cl` — what was its Activity?
-1.1

Sample `COc1cc(CSCCNC(=O)c2c(Cl)cccc2Cl)cc(OC)c1` — what was its Activity?
2

Sample COc1cccc(C[S+]([O-])CCNC(=O)c2c(Cl)cccc2Cl)c1 (stereo unspecified) — what was its Activity?
1.6

Sample `O=C(NCCSCc1cccc(F)c1)c1c(F)cccc1F` — what was its Activity?
0.1
